pKi: −log10 of the molar value.
Let's go through some recorded pKi values for human vasopressin V1b receptor (Homo sapiens, UniProt P47901) together.

Below, 5 compounds whose answers are already recorded.
CCOc1ccccc1C1(N2CCN(c3ccncc3)CC2)C(=O)N(S(=O)(=O)c2ccc(C(C)C)cc2)c2ccc(C#N)cc21 (racemic) [Example 81] : 6.30 to 7.30
CCOc1ccc(OC)cc1C1(N2CCN(C3CCN(C)CC3)CC2)C(=O)N(S(=O)(=O)c2ccc(OC)cc2OC)c2ccc(C#N)cc21 (racemic) [Example 102] : > 7.30
CCOc1ccc(OC)cc1C1(N2CCN(c3ccnc(CC)c3)CC2)C(=O)N(S(=O)(=O)c2ccc(OC)cc2OC)c2ccc(C#N)cc21 (racemic) [Example 94] : > 7.30
CCOc1ccc(OC)cc1C1(N2CCN(c3ccncc3)CC2)C(=O)N(S(=O)(=O)c2ccc(OC)cc2)c2ccc(C#N)cc21 (stereo not drawn) [Example 62] : > 7.30
CCOc1ccccc1C1(N2CCN(c3ccncc3)CC2)C(=O)N(S(=O)(=O)c2ccc(OC(C)C)cc2)c2ccc(C#N)cc21 (stereo not drawn) [Example 113] : 6.30 to 7.30

Now for the compound whose pKi we want.
// lookup pKi | system=human vasopressin V1b receptor (Homo sapiens, UniProt P47901) | key= COc1ccc(S(=O)(=O)N2C(=O)C(c3cc(OC)ccc3OC(C)C)(N3CCN(c4ccncc4)CC3)c3cc(C#N)ccc32)c(OC)c1 (stereo not drawn) [Example 53]
6.30 to 7.30
